- Study System: Focal adhesion kinase 1 (Homo sapiens) (UniProt Q05397)
- Sequence (Q05397 whole entry, looked up): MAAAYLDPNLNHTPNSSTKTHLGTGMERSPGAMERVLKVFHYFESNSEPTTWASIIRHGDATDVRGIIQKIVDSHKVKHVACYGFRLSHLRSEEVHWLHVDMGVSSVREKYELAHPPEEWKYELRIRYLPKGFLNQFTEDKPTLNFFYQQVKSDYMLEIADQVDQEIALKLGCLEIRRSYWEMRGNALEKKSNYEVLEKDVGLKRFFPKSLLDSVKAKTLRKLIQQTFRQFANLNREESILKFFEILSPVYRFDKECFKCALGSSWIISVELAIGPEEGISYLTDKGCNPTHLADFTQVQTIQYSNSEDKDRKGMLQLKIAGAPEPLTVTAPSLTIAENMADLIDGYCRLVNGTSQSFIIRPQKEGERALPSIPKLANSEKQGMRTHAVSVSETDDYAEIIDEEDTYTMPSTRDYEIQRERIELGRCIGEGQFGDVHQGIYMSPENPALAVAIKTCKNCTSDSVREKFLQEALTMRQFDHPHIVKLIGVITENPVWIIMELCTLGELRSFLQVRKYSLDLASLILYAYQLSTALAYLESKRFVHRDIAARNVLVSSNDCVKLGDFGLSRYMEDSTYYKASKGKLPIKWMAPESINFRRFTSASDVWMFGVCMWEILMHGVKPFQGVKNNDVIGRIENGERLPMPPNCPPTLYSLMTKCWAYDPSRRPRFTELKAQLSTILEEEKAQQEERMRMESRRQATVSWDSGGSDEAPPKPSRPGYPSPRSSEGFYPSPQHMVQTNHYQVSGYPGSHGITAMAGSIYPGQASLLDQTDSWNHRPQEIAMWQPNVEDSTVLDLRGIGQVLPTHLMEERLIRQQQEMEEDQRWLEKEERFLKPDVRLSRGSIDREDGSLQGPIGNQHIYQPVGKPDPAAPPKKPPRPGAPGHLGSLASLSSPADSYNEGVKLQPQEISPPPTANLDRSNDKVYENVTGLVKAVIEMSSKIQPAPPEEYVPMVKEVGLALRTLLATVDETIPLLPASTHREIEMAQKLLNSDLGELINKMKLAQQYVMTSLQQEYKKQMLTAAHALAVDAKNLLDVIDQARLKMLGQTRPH
- Assay: PTK2 protein binding on printed compound slides – biochemical, small-molecule microarray, 635/667 nm fluorescence, BSA, DTT, primary screen (AID 1130);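 note: composite of spot emission at 667 nm and signal to noise over triplicate slides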
- Assay Setup: 635 nm fluorescence, higher = more signal
Label 1 when composite z-score >= 0.5; otherwise -1.

# count of solved cases: 8
CS(=O)(=O)CCOC(=O)C1=CC(CCCO)=CC(c2ccc(CN3CCCC3)cc2)N(Cc2sc3ccccc3c2Cl)C=C1C(=O)OCCS(C)(=O)=O (stereo not given) = -1
CC(C)c1ccc(NN2C(C(O)c3ccc(F)cc3)C=CC3C(=O)N(c4ccccc4)C(=O)C32)cc1 (stereo not given) = 1
COc1cccc(C)c1NC(=O)O[C@H]1[C@H](OC(=O)Nc2ccc3c(c2)OCO3)[C@@H](OC(=O)Nc2ccc3c(c2)OCO3)[C@@H](OC)O[C@@H]1CO = 1
CC[C@@H]1C=C(C(=O)O)[C@H](c2ccccc2)N1S(=O)(=O)c1ccc(C)cc1 = -1
CCCC=C(CCC)[C@@H](NS(=O)(=O)CC12CCC(CC1=O)C2(C)C)c1ccc(C(=O)OC)cc1 (stereo not given in full) = -1
C=CCC(OC(C)=O)[C@@H]1[C@@H](N(Cc2cccc3ccccc23)C(=O)Cc2ccc(F)cc2)c2cc(OCCCO)ccc2N1C(=O)c1ccc2ccccc2c1 (stereo not given in full) = -1
COCCOC(=O)N1C(=O)[C@@]2(c3cc(C#CC4=CCCCC4)ccc31)[C@H](C(=O)Nc1nc3ccccc3s1)[C@H]1C(=O)O[C@H](c3ccccc3)[C@H](c3ccccc3)N1[C@@H]2c1ccc(O)cc1 = 1
CC(CO)N1C(=O)[C@]2(C)C3C(=O)OCCC/C=C\[C@H]3OC23C=CCN(c2ccc(Cl)cc2)C(=O)[C@@H]13 (stereo not given in full) = 1

composite z-score >= 0.5 for "COC(=O)[C@@]1(Cc2ccc(F)cc2)[C@H]2c3cc(C(=O)N4CCCC4)n(Cc4ccc(C)c(F)c4F)c3C[C@H]2CN1C(=O)c1ccccc1" ?
1

composite z-score >= 0.5 for "C=C(C(=O)CC[C@H](OC(=O)c1ccccc1-c1ccccc1C(=O)O)c1cccc(OCCO)c1)C(C)C" ?
-1

composite z-score >= 0.5 for CC(C)C(CO)N1C(=O)[C@@H]2[C@H]3C(=O)OCC=C[C@H]3OC23C=CCN(c2ccc(Cl)cc2)C(=O)[C@@H]13 (stereo not given in full) ?
-1

composite z-score >= 0.5 for Cc1ccc(NN2C(C(O)c3c(F)cccc3Cl)C=CC3C(=O)N(C4CCCCC4)C(=O)C32)cc1 (stereo not given) ?
1

composite z-score >= 0.5 for "COC(=O)[C@@H]1N=C(c2ccc(OCCCO)cc2)O[C@@H]1C" ?
1

composite z-score >= 0.5 for "O=c1cccc(-c2ccc([N+](=O)[O-])cc2)o1" ?
-1

composite z-score >= 0.5 for CC(C)C(O)C1C=CC2C(=O)N(c3ccccc3)C(=O)C2N1Nc1ccccc1 (stereo not given) ?
-1
